Run description: Drug homolysis in H2O/MeOH buffered with Na2CO3/NaHCO3 at pH 10.3 assessed as rate constant by measuring nitroxide level in presence of alkyl radical scavenger TEMPOR by 31P[1H]-NMR analysis
// reported Kdiss for each item listed

Worked examples, 3 compounds total:
Compound | Kdiss
CCOP(=O)(OCC)C(N(OC(C)c1nccn1C)C(C)(C)C)C(C)(C)C (stereo in doubt; form 2) | 1.23 ×10⁻³ /s
CCOP(=O)(OCC)C(N(OC(C)c1c[nH]cn1)C(C)(C)C)C(C)(C)C (stereo in doubt; form 2) | 4.07 ×10⁻⁵ /s
CCOP(=O)(OCC)C(N(OC(C)c1cn(C)cn1)C(C)(C)C)C(C)(C)C (stereo in doubt; form 1) | 4.89 ×10⁻⁵ /s

Consider now this further compound.
-- ask Name the reported Kdiss value associated with the compound CCOP(=O)(OCC)C(N(OC(C)c1cn(C)cn1)C(C)(C)C)C(C)(C)C (stereo in doubt; form 2)
-- reply 4.57 ×10⁻⁵ /s
